Known reverse transcriptase (RT) activity in the supernatants, Day 10 RT (OD) of a selection of binders
# target: major capsid protein (p24) of HIV-1 (HIV-1, UniProt P04591)
# assay_overview: cell-based or functional assay
Ends that are not written are not given here.
experimental_readout: reverse transcriptase (RT) activity in the supernatants, Day 10 RT (OD)

| binder | numeric_value |
| --- | --- |
| Ile-Leu-Lys-NH2 [ILK-NH2] | 2.03 |
| Gly-Pro-Gln-NH2 [GPQ-NH2] | 1.97 |
| Lys-Ala-Leu-NH2 [KAL-NH2] | 2 |
